B1: H2-Kb / Ed45 (parent complex)
chain 1: GEQVEQRPPHLSVREGDSAVIICTYTDPNSYYFFWYKQEPGAGLQLLMKVFSSTEINEGQGFTVLLNKKDKQLSLNLTAAHPGDSAVYFCAVSGTNAYKVIFGKGTHLHVLP
chain 2: EAAVTQSPRSKVAVTGGKVTLSCHQTNNHDYMYWYRQDTGHGLRLIHYSYVADSTEKGDIPDGYKASRPSQENFSLILELASLSQTAVYFCASARGFQDTQYFGPGTRLLVL
chain 3: not shown
chain 4: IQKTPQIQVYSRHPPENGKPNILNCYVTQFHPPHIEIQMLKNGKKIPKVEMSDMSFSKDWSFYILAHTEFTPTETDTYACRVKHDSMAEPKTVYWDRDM
chain 5: SIINFEKL

variants of: B1; assay: % of reporter cells activated (NFAT-GFP), raw; also: test concentration or dose not given here
Criterion: ratio to parent meeting or surpassing 1. Met: rule met. Not met: rule not met.

Request: Item chain 5 I2C with ratio to parent of 1 or above?
Result: rule met

Request: Item chain 5 K7T with ratio to parent of 1 or above?
Result: rule not met

Request: Item chain 5 E6Y with ratio to parent of 1 or above?
Result: rule not met

Request: Item chain 5 S1R with ratio to parent of 1 or above?
Result: rule not met

Request: Item chain 5 K7S with ratio to parent of 1 or above?
Result: rule met

Request: Item chain 5 F5V with ratio to parent of 1 or above?
Result: rule not met

Request: Item chain 5 E6S with ratio to parent of 1 or above?
Result: rule not met

Request: Item chain 5 F5C with ratio to parent of 1 or above?
Result: rule met

Request: Item chain 5 F5S with ratio to parent of 1 or above?
Result: rule met

Request: Item chain 5 I2F with ratio to parent of 1 or above?
Result: rule met

Request: Item chain 5 E6C with ratio to parent of 1 or above?
Result: rule not met

Request: Item chain 5 L8P with ratio to parent of 1 or above?
Result: rule met

Request: Item chain 5 I2Y with ratio to parent of 1 or above?
Result: rule met

Request: Item chain 5 I2N with ratio to parent of 1 or above?
Result: rule met

Request: Item chain 5 I3R with ratio to parent of 1 or above?
Result: rule met

Request: Item chain 5 I3P with ratio to parent of 1 or above?
Result: rule met

Request: Item chain 5 I3A with ratio to parent of 1 or above?
Result: rule met
